Tested on: rat PCA response
PROTOCOL SUMMARY: Rat Passive Cutaneous Anaphylaxis (PCA) test
Format: in vivo, rat (male Wistar serum donors; Wistar test rats)
CONDITION PARAMETERS: dose 25 mg/Kg, time 30 mins prior to challenge
Mark N for inhibition in vivo at 25 mg/kg values under 40%, and Y for everything at or above.

Problem: Determine whether measured inhibition in vivo at 25 mg/kg meets or exceeds 40% for O=c1[nH]c2c(c(O)c1[N+](=O)[O-])CCCCCC2 [Example 7]
Result: N

###

List of inhibition in vivo at 100 mg/kg values.
Tested on: rat PCA response
PROTOCOL SUMMARY: Rat Passive Cutaneous Anaphylaxis (PCA) test
Type: in vivo, rat (male Wistar serum donors; Wistar test rats)
CONDITION PARAMETERS: dose 100 mg/Kg, time 0 mins prior to challenge
Please make sure the unit comes right after the number.

1) CC1CCc2[nH]c(=O)c([N+](=O)[O-])c(O)c2C1 (stereo not shown)    24%
2) CC1Cc2[nH]c(=O)c([N+](=O)[O-])c(O)c2C(C)C1 (stereo not shown)    72%

get_value(item= CCCn1c2c(c(O)c([N+](=O)[O-])c1=O)CCCC2 , readout=inhibition in vivo at 100 mg/kg) returns 18%
